- TARGET_UNDER_TEST: GST-RIPK2 fusion protein (human RIPK2, amino acids 1-310) (Homo sapiens, UniProt O43353)
- Construct: made in house; host or cells: baculovirus infected Sf9 cells
- Sequence (O43353 1-310): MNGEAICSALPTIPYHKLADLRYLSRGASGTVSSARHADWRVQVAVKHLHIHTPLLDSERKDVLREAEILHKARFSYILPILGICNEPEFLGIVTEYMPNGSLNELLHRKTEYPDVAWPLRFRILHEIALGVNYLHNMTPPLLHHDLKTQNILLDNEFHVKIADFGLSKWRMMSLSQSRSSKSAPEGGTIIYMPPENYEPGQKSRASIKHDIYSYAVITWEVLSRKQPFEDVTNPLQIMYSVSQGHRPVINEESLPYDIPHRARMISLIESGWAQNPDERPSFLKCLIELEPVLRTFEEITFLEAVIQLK
- METHOD_NOTES: RIPK2 binding competition assay (TR-FRET, Tracer 199 displacement)
- PROTOCOL_CONDITIONS: 10 nM Tracer 199, 1 nM GST-RIPK2, read-out: RIPK2 IC50
pIC50: −log10 of the molar value.
Each item that follows carries a reported pIC50.
PROPERTY_LABEL: pIC50

- STRUCTURE_SMILES_STRING: "COc1c(F)cc(-c2cnc3cc(OC[C@@H](C)O)c(S(=O)(=O)C(C)(C)C)cn23)cc1NS(C)(=O)=O"
  RESULT: "8.60 to 9.00"
- STRUCTURE_SMILES_STRING: "COc1cc2ncc(-c3ccn4nccc4c3)n2cc1S(=O)(=O)C(C)(C)C"
  RESULT: "7.70 to 8.60"
- STRUCTURE_SMILES_STRING: "Cc1c(-c2cnc3cc(OCCO)c(S(=O)(=O)C(C)(C)C)cn23)cnc(N)c1F"
  RESULT: "< 7.70"
- STRUCTURE_SMILES_STRING: "COc1cc2ncc(-c3cc4cc[nH]c4nc3F)n2cc1S(=O)(=O)C(C)(C)C"
  RESULT: "> 9.00"
- STRUCTURE_SMILES_STRING: "COc1cc2ncc(-c3cccc(NS(=O)(=O)C4CCOCC4)c3)n2cc1S(=O)(=O)C(C)(C)C"
  RESULT: "7.70 to 8.60"
- STRUCTURE_SMILES_STRING: "Cc1c[nH]c2ncc(-c3cnc4cc(OCCO)c(S(=O)(=O)C(C)(C)C)cn34)cc12"
  RESULT: "7.70 to 8.60"
- STRUCTURE_SMILES_STRING: "CC(C)(C)S(=O)(=O)c1cn2c(-c3cc(Br)c(N)nc3F)cnc2cc1OCCO"
  RESULT: "7.70 to 8.60"
- STRUCTURE_SMILES_STRING: "COc1cc2ncc(-c3cc(C)c4nn(C)cc4c3)n2cc1S(=O)(=O)C(C)(C)C"
  RESULT: "7.70 to 8.60"
- STRUCTURE_SMILES_STRING: "COc1cc2ncc(-c3cc(F)c(N)nc3F)n2cc1S(=O)(=O)C(C)(C)Cn1cccn1"
  RESULT: "< 7.70"
- STRUCTURE_SMILES_STRING: "COc1cc2ncc(-c3cc(F)c(OC)c(NS(=O)(=O)C4COC4)c3)n2cc1S(=O)(=O)C(C)(C)C"
  RESULT: "8.60 to 9.00"
- STRUCTURE_SMILES_STRING: "COc1cc2ncc(-c3ccc4c(N)noc4c3)n2cc1S(=O)(=O)C(C)(C)C"
  RESULT: "7.70 to 8.60"
- STRUCTURE_SMILES_STRING: "C[C@H](O)COc1cc2ncc(-c3cc(Cl)c(N)nc3F)n2cc1S(=O)(=O)C(C)(C)C"
  RESULT: "8.60 to 9.00"
- STRUCTURE_SMILES_STRING: "C[C@H](CO)COc1cc2ncc(-c3cc(Cl)c(N)nc3F)n2cc1S(=O)(=O)C(C)(C)C"
  RESULT: "8.60 to 9.00"
- STRUCTURE_SMILES_STRING: "COC(=O)Nc1ccc(-c2cnc3cc(OC)c(S(=O)(=O)C(C)(C)C)cn23)cn1"
  RESULT: "< 7.70"
- STRUCTURE_SMILES_STRING: "CC(C)(C)S(=O)(=O)c1cc2c(-c3cc(F)c(N)nc3F)cnn2cc1OCCOP(=O)(O)O"
  RESULT: "< 7.70"
- STRUCTURE_SMILES_STRING: "COc1cc2ncc(-c3cc(F)c(N)nc3F)n2cc1P1(=O)CCN(C)CC1"
  RESULT: "< 7.70"

---

pIC50 values, listed per item
- TARGET_UNDER_TEST: GST-RIPK2 fusion protein (human RIPK2, amino acids 1-310) (Homo sapiens, UniProt O43353)
- Construct: made in house; host or cells: baculovirus infected Sf9 cells
- METHOD_NOTES: RIPK2 binding competition assay (TR-FRET, Tracer 199 displacement)
- PROTOCOL_CONDITIONS: 10 nM Tracer 199, 1 nM GST-RIPK2, read-out: RIPK2 IC50
pIC50: −log10 of the molar value.

- STRUCTURE_SMILES_STRING: "CC(C)(C)S(=O)(=O)c1cn2c(-c3cnc4[nH]cnc4c3)cnc2cc1OCCO"
  TARGET_UNDER_TEST: "GST-RIPK2 fusion protein (human RIPK2, amino acids 1-310) (Homo sapiens, UniProt O43353)"
  pIC50: "< 7.70"
- STRUCTURE_SMILES_STRING: "CC(C)(C)S(=O)(=O)c1cn2c(-c3cnc4[nH]nnc4c3)cnc2cc1OCCO"
  TARGET_UNDER_TEST: "GST-RIPK2 fusion protein (human RIPK2, amino acids 1-310) (Homo sapiens, UniProt O43353)"
  pIC50: "< 7.70"
- STRUCTURE_SMILES_STRING: "COc1cc2ncc(-c3ccc4nc(N)oc4c3)n2cc1S(=O)(=O)C(C)(C)C"
  TARGET_UNDER_TEST: "GST-RIPK2 fusion protein (human RIPK2, amino acids 1-310) (Homo sapiens, UniProt O43353)"
  pIC50: "7.70 to 8.60"
- STRUCTURE_SMILES_STRING: "COc1cc2ncc(-c3cc(F)c(OC)c(NS(=O)(=O)CC4CC4)c3)n2cc1S(=O)(=O)C(C)(C)C"
  TARGET_UNDER_TEST: "GST-RIPK2 fusion protein (human RIPK2, amino acids 1-310) (Homo sapiens, UniProt O43353)"
  pIC50: "> 9.00"
- STRUCTURE_SMILES_STRING: "CCCS(=O)(=O)Nc1cc(-c2cnc3cc(OC)c(S(=O)(=O)C4(C)CC4)cn23)cc(OC)c1OC"
  TARGET_UNDER_TEST: "GST-RIPK2 fusion protein (human RIPK2, amino acids 1-310) (Homo sapiens, UniProt O43353)"
  pIC50: "> 9.00"
- STRUCTURE_SMILES_STRING: "COc1cc2ncc(-c3cc(F)c(N)nc3F)n2cc1S(=O)(=O)C(C)(C)CCCO"
  TARGET_UNDER_TEST: "GST-RIPK2 fusion protein (human RIPK2, amino acids 1-310) (Homo sapiens, UniProt O43353)"
  pIC50: "7.70 to 8.60"
- STRUCTURE_SMILES_STRING: "COc1cc2nc(N)c(-c3cc(F)c(N)nc3F)n2cc1S(=O)(=O)C(C)(C)C"
  TARGET_UNDER_TEST: "GST-RIPK2 fusion protein (human RIPK2, amino acids 1-310) (Homo sapiens, UniProt O43353)"
  pIC50: "< 7.70"
- STRUCTURE_SMILES_STRING: "COc1cc2ncc(-c3cc(F)c4nc(C)cn4c3)n2cc1S(=O)(=O)C(C)(C)C"
  TARGET_UNDER_TEST: "GST-RIPK2 fusion protein (human RIPK2, amino acids 1-310) (Homo sapiens, UniProt O43353)"
  pIC50: "< 7.70"

---

- TARGET_UNDER_TEST: binding of His-XIAP(BIR2)-avi fusion protein to GST-RIPK2 fusion protein (RIPK2/XIAP) (Homo sapiens, UniProt O43353)
- Construct: made in house; host or cells: baculovirus infected Sf9 cells
- Sequence (O43353 1-310 limits assumed): as the sequence (O43353 1-310) above
- METHOD_NOTES: RIPK2-XIAP binding competition PPI assay (TR-FRET)
- PROTOCOL_CONDITIONS: RIPK2/XIAP binding competition PPI assay, Amax; read-out: PPI Amax bin

- COMPOUND: "C[C@H](O)COc1cc2ncc(-c3cc(Cl)c(N)nc3F)n2cc1S(=O)(=O)C(C)(C)C"
  Emax: "> 80%"
- COMPOUND: "CC(C)(C)S(=O)(=O)c1cn2c(-c3cnc4ccnn4c3)cnc2cc1OCCO"
  Emax: "> 80%"
- COMPOUND: "COc1cc2ncc(-c3cc(F)c(N)nc3F)n2cc1P1(=O)CCN(C)CC1"
  Emax: "> 80%"
- COMPOUND: "CC(F)(CO)COc1cc2ncc(-c3cc(Cl)c(N)nc3F)n2cc1S(=O)(=O)C(C)(C)C (single isomer, unassigned)"
  Emax: "> 80%"
- COMPOUND: "COc1cc2ncc(-c3cc(F)c(OC)c(NC(=O)c4cnn(C)c4)c3)n2cc1S(=O)(=O)C(C)(C)C"
  Emax: "> 80%"
- COMPOUND: "CCCS(=O)(=O)Nc1cc(-c2cnc3cc(OC)c(S(=O)(=O)C4(C)CC4)cn23)cc(OC)c1OC"
  Emax: "> 80%"
- COMPOUND: "COc1cc2ncc(-c3ccc4cnn(C)c4c3)n2cc1S(=O)(=O)C(C)(C)C"
  Emax: "< 30%"
- COMPOUND: "COc1cc2ncc(-c3cccc(NS(=O)(=O)C4(CO)CC4)c3)n2cc1S(=O)(=O)C(C)(C)C"
  Emax: "55 to 80%"
- COMPOUND: "COc1cc2ncc(-c3ccc4c(N)n[nH]c4c3)n2cc1S(=O)(=O)C(C)(C)C"
  Emax: "< 30%"
- COMPOUND: "COc1cc2ncc(-c3cccc(NS(=O)(=O)C4CCOCC4)c3)n2cc1S(=O)(=O)C(C)(C)C"
  Emax: "> 80%"
- COMPOUND: "CCS(=O)(=O)Nc1cc(-c2cnn3cc(OCCO)c(S(=O)(=O)C(C)(C)C)cc23)cc(F)c1OC"
  Emax: "55 to 80%"
- COMPOUND: "CC(C)(C)S(=O)(=O)c1cn2c(-c3ccc4ccnn4c3)cnc2cc1OCCO"
  Emax: "30 to 55%"
- COMPOUND: "COc1cc2ncc(-c3cc(F)c(OC)c(NS(=O)(=O)c4cnn(C)c4C)c3)n2cc1S(=O)(=O)C(C)(C)C"
  Emax: "> 80%"
- COMPOUND: "CCCS(=O)(=O)Nc1cc(-c2cnc3cc(OC)c(S(=O)(=O)C(C)(C)CO)cn23)cc(Cl)c1OC"
  Emax: "> 80%"
- COMPOUND: "COc1cc2ncc(-c3cc(F)c(N)nc3F)n2cc1S(=O)(=O)C(C)(C)CCO"
  Emax: "> 80%"

Value source: patent US20260137706A1
